Hello, the source for this data is ChEMBL document CHEMBL1212869, in case you need it.

experimentNotes: Cytotoxicity against human MT4 cells after 4 days by MTT assay
Format: cell-based
Below, each entry is listed with its recorded CC50 at 96 h.

| entrySmiles | unitSpec | reportedRelation | CC50 at 96 h |
| --- | --- | --- | --- |
| Nc1ccc2oc(-c3ccc(C(F)(F)F)cc3)c(O)c(=O)c2c1 | µM | = | 3.9 |
| COc1c(-c2ccccc2)oc2ccc(N)cc2c1=O | µM | = | 126 |
| CC(=O)Nc1ccc2oc(-c3ccc(C(F)(F)F)cc3)cc(=O)c2c1 | µM | = | 330 |
| COc1c(-c2ccc(F)cc2)oc2ccc(N)cc2c1=O | µM | = | 141 |
| COc1cccc(-c2cc(=O)c3cc(NC(C)=O)ccc3o2)c1 | µM | > | 404 |
| Nc1ccc2oc(-c3cccc(F)c3)cc(=O)c2c1 | µM | = | 269 |
| COc1c(-c2cccc(F)c2)oc2ccc(NC(C)=O)cc2c1=O | µM | = | 210 |
| COc1c(-c2ccccc2F)oc2ccc(N)cc2c1=O | µM | = | 234 |
| COc1c(-c2ccc(C(F)(F)F)cc2)oc2ccc(NC(C)=O)cc2c1=O | µM | = | 332 |
| COc1ccc(-c2oc3ccc(N)cc3c(=O)c2OC)cc1 | µM | = | 200 |
| COc1ccccc1/C=C/C(=O)c1cc(NC(C)=O)ccc1O | µM | = | 37.8 |
| COc1c(-c2cccc(F)c2)oc2ccc(N)cc2c1=O | µM | = | 112 |
